# relative viability per entry
# Test system: HCC-366
# Assay Method Text: relative viability (nuclei count vs DMSO), 5 days (fraction); higher = more cells survive
# Condition: first compound 0.2 µM
Write no unit; give the number alone.

Compound | Tgt | relative viability
CCNC(=O)c1noc(-c2cc(C(C)C)c(O)cc2O)c1-c1ccc(CN2CCOCC2)cc1 [Luminespib] + CC(C)C[C@H](NC(=O)[C@H](Cc1ccccc1)NC(=O)c1cnccn1)B(O)O [Bortezomib] (partner 0.002 µM) | HCC-366 | 0.0174

// query // lookup relative viability for Cc1csc(=NC2CCCCC2)n1/N=C/c1ccc(O)c(O)c1O [MIM1] + COc1cccc2cc(-c3nc([C@H]4CC[C@H](C(=O)O)CC4)n4ncnc(N)c34)[nH]c12 [OSI-027] (partner 0.5 µM)
// result 0.852

// query // lookup relative viability for Cc1csc(=NC2CCCCC2)n1/N=C/c1ccc(O)c(O)c1O [MIM1] + CS(=O)(=O)CCNCc1ccc(-c2ccc3ncnc(Nc4ccc(OCc5cccc(F)c5)c(Cl)c4)c3c2)o1 [Lapatinib] (partner 2 µM)
// result 1.01

// query // lookup relative viability for Cc1csc(=NC2CCCCC2)n1/N=C/c1ccc(O)c(O)c1O [MIM1] + NC(=O)Nc1cc(-c2cccc(F)c2)sc1C(=O)N[C@H]1CCCNC1 [AZD7762] (partner 0.2 µM)
// result 0.318

* * *

# Tested on: NCI-H2170
# Assay Method Text: relative viability (nuclei count vs DMSO), 5 days (fraction); higher = more cells survive
# Condition: first compound 0.1 µM
# relative viability per entry
Write no unit; give the number alone.

Compound | Measured
Cc1cn(-c2cc(NC(=O)c3ccc(C)c(Nc4nccc(-c5cccnc5)n4)c3)cc(C(F)(F)F)c2)cn1 [Nilotinib] + CCNC(=O)c1noc(-c2cc(C(C)C)c(O)cc2O)c1-c1ccc(CN2CCOCC2)cc1 [Luminespib] (partner 0.01 µM) | 0.877

Continue with the compound presented below.
// query // lookup relative viability for Cc1cn(-c2cc(NC(=O)c3ccc(C)c(Nc4nccc(-c5cccnc5)n4)c3)cc(C(F)(F)F)c2)cn1 [Nilotinib] + Cc1nc(NC(=O)N2CCC[C@H]2C(N)=O)sc1-c1ccnc(C(C)(C)C(F)(F)F)c1 [Alpelisib] (partner 2 µM)
// result 1.07

* * *

# System: NCI-H1666
# Assay Method Text: relative viability (nuclei count vs DMSO), 5 days (fraction); higher = more cells survive
# Condition: first compound 2.53 µM
# thresholds on relative viability define classes: bin 0 (below 0.8), bin 1 (0.8 to below 0.9), bin 2 (0.9 or more)

Observe how each entry below is paired with its result.
Compound | Tgt | Group
Nc1cccc2c1CN(C1CCC(=O)NC1=O)C2=O (stereo not given) [Lenalidomide] + CC(=O)Nc1cccc(-n2c(=O)n(C3CC3)c(=O)c3c(Nc4ccc(I)cc4F)n(C)c(=O)c(C)c32)c1 [Trametinib] (partner 0.02 µM) | NCI-H1666 | bin 2
Nc1cccc2c1CN(C1CCC(=O)NC1=O)C2=O (stereo not given) [Lenalidomide] + C[C@@H](Oc1cc(-c2cnn(C3CCNCC3)c2)cnc1N)c1c(Cl)ccc(F)c1Cl [Crizotinib] (partner 1 µM) | NCI-H1666 | bin 2

// query Lab log: Nc1cccc2c1CN(C1CCC(=O)NC1=O)C2=O (stereo not given) [Lenalidomide] + Nc1nc2[nH]cc(CCc3ccc(C(=O)N[C@@H](CCC(=O)O)C(=O)O)cc3)c2c(=O)[nH]1 [Pemetrexed] (partner 0.2 µM) — assign relative viability category
// result bin 1

* * *

# Tested on: LK-2
# Assay Method Text: relative viability (nuclei count vs DMSO), 5 days (fraction); higher = more cells survive
# Condition: first compound 0.003162 µM
Readout Label: relative viability

// query // lookup relative viability for Cc1cn(-c2cc(NC(=O)c3ccc(C)c(Nc4nccc(-c5cccnc5)n4)c3)cc(C(F)(F)F)c2)cn1 [Nilotinib] + O=C(CCCCCCC(=O)Nc1ccccc1)NO [Vorinostat] (partner 1 µM)
// result 0.23

// query // lookup relative viability for Cc1cn(-c2cc(NC(=O)c3ccc(C)c(Nc4nccc(-c5cccnc5)n4)c3)cc(C(F)(F)F)c2)cn1 [Nilotinib] + CS(=O)(=O)N1CCN(Cc2cc3nc(-c4cccc5[nH]ncc45)nc(N4CCOCC4)c3s2)CC1 [Pictilisib] (partner 1 µM)
// result 0.451

// query // lookup relative viability for Cc1cn(-c2cc(NC(=O)c3ccc(C)c(Nc4nccc(-c5cccnc5)n4)c3)cc(C(F)(F)F)c2)cn1 [Nilotinib] + COc1cccc2cc(-c3nc([C@H]4CC[C@H](C(=O)O)CC4)n4ncnc(N)c34)[nH]c12 [OSI-027] (partner 0.5 µM)
// result 0.174

// query // lookup relative viability for Cc1cn(-c2cc(NC(=O)c3ccc(C)c(Nc4nccc(-c5cccnc5)n4)c3)cc(C(F)(F)F)c2)cn1 [Nilotinib] + Nc1ncn([C@H]2C[C@H](O)[C@@H](CO)O2)c(=O)n1 [Decitabine] (partner 2 µM)
// result 0.338

// query // lookup relative viability for Cc1cn(-c2cc(NC(=O)c3ccc(C)c(Nc4nccc(-c5cccnc5)n4)c3)cc(C(F)(F)F)c2)cn1 [Nilotinib] + CC(=O)Nc1cccc(-n2c(=O)n(C3CC3)c(=O)c3c(Nc4ccc(I)cc4F)n(C)c(=O)c(C)c32)c1 [Trametinib] (partner 0.02 µM)
// result 0.515

* * *

# Test system: Calu-6
# Assay Method Text: relative viability (nuclei count vs DMSO), 5 days (fraction); higher = more cells survive
# Condition: first compound 0.6325 µM
Readout Label: relative viability
Write no unit; give the number alone.

// query // lookup relative viability for CN1CCN(CCOc2cc(OC3CCOCC3)c3c(Nc4c(Cl)ccc5c4OCO5)ncnc3c2)CC1 [Saracatinib] + C[C@]1(O)C[C@@H](c2nc(-c3ccc4ccc(-c5ccccc5)nc4c3)c3c(N)nccn32)C1 [Linsitinib] (partner 1 µM)
// result 0.906

* * *

# Test system: NCI-H520
# Assay Method Text: relative viability (nuclei count vs DMSO), 5 days (fraction); higher = more cells survive
# Condition: first compound 0.02 µM
# relative viability per entry
Write no unit; give the number alone.

Guide cases for relative viability, answers given:
Compound | relative viability
CN1CCN(CCOc2cc(OC3CCOCC3)c3c(Nc4c(Cl)ccc5c4OCO5)ncnc3c2)CC1 [Saracatinib] + CC(=O)Nc1cccc(-n2c(=O)n(C3CC3)c(=O)c3c(Nc4ccc(I)cc4F)n(C)c(=O)c(C)c32)c1 [Trametinib] (partner 0.02 µM) | 0.703
CN1CCN(CCOc2cc(OC3CCOCC3)c3c(Nc4c(Cl)ccc5c4OCO5)ncnc3c2)CC1 [Saracatinib] + C[C@@H](Oc1cc(-c2cnn(C3CCNCC3)c2)cnc1N)c1c(Cl)ccc(F)c1Cl [Crizotinib] (partner 1 µM) | 0.74
CN1CCN(CCOc2cc(OC3CCOCC3)c3c(Nc4c(Cl)ccc5c4OCO5)ncnc3c2)CC1 [Saracatinib] + Nc1ncn([C@H]2C[C@H](O)[C@@H](CO)O2)c(=O)n1 [Decitabine] (partner 2 µM) | 0.544
CCNC(=O)c1noc(-c2cc(C(C)C)c(O)cc2O)c1-c1ccc(CN2CCOCC2)cc1 [Luminespib] + CS(=O)(=O)N1CCN(Cc2cc3nc(-c4cccc5[nH]ncc45)nc(N4CCOCC4)c3s2)CC1 [Pictilisib] (partner 1 µM) | 0.209

// query Enter reported relative viability observed with NCI-H520 for CCNC(=O)c1noc(-c2cc(C(C)C)c(O)cc2O)c1-c1ccc(CN2CCOCC2)cc1 [Luminespib] + C[C@@H](Oc1cc(-c2cnn(C3CCNCC3)c2)cnc1N)c1c(Cl)ccc(F)c1Cl [Crizotinib] (partner 1 µM)
// result 0.845

// query Enter reported relative viability observed with NCI-H520 for CCNC(=O)c1noc(-c2cc(C(C)C)c(O)cc2O)c1-c1ccc(CN2CCOCC2)cc1 [Luminespib] + Cc1cc(Nc2cc(N3CCN(C)CC3)nc(Sc3ccc(NC(=O)C4CC4)cc3)n2)n[nH]1 [Tozasertib] (partner 0.1 µM)
// result 0.345

// query Enter reported relative viability observed with NCI-H520 for CN1CCN(CCOc2cc(OC3CCOCC3)c3c(Nc4c(Cl)ccc5c4OCO5)ncnc3c2)CC1 [Saracatinib] + CS(=O)(=O)CCNCc1ccc(-c2ccc3ncnc(Nc4ccc(OCc5cccc(F)c5)c(Cl)c4)c3c2)o1 [Lapatinib] (partner 2 µM)
// result 0.853

// query Enter reported relative viability observed with NCI-H520 for CN1CCN(CCOc2cc(OC3CCOCC3)c3c(Nc4c(Cl)ccc5c4OCO5)ncnc3c2)CC1 [Saracatinib] + Cc1cc(Nc2cc(N3CCN(C)CC3)nc(Sc3ccc(NC(=O)C4CC4)cc3)n2)n[nH]1 [Tozasertib] (partner 0.1 µM)
// result 0.407

// query Enter reported relative viability observed with NCI-H520 for CCNC(=O)c1noc(-c2cc(C(C)C)c(O)cc2O)c1-c1ccc(CN2CCOCC2)cc1 [Luminespib] + N=C(N)NC(=N)NCCc1ccccc1 [Phenformin] (partner 250 µM)
// result 0.248
